- System: ACHN
- protocol-summary: NCI tumour cell line growth inhibition, 48 h
Structures can show the parent of a compound that is named as a salt. Activity calls are given as the source filed them. Cut-off read from the data, not from the text of the source: active = GI50 up to about 1.1 µM and inactive = higher.
measured-attribute: GI50

# count of solved cases: 3
compound	GI50
COC(=O)C(CCSC)NC(=O)CNC(=O)CSc1nnc(COc2ccc(Cl)cc2)n1-c1ccccc1 (centres undefined)	17 µM (inactive)
CN(C)CCOc1ccc(/C(=C(/CCCl)c2ccccc2)c2ccccc2)cc1 [TOREMIFENE CITRATE]	17.5 µM (inactive)
OCC(O)C(O)C(C=NNc1ncnc2ccc(Br)cc12)=NNc1ncnc2ccc(Br)cc12 (centres undefined)	1.85 µM (inactive)

Now consider a different compound.
// GI50 lookup, key: OC(c1ccccc1)C1CC2C=CC1C2 (centres undefined)
> 100 µM (inactive)

----------
- Test system: M14
- protocol-summary: NCI tumour cell line growth inhibition, 48 h
The source made the active and inactive calls. No stated cut-off is given here; in the data, active = GI50 up to about 1.1 µM and inactive = higher.
Lab note: assign the record to one of 1 for active, 0 for inactive

Some solved entries appear below for comparison.
molecule	class-label
CCCCC/C(C=O)=C\c1ccccc1	0
CC(C(=O)O)/C(=C\c1ccc2c(c1)OCO2)C(=O)O (stereo not drawn)	0
c1ccc2c(c1)[nH]c1c2nc2ncccn21	0
CCN(CC)CCNc1ccc2ncn3c4ccc(OC)cc4c(=O)c1c23	0

Lab note: next molecule to report on.
# fetch the recorded call for CCOC(=O)CC/C(=N/Nc1ccc(Cl)cc1[N+](=O)[O-])C(=O)OCC here
0

----------
- Tested on: SK-MEL-5
- protocol-summary: NCI tumour cell line growth inhibition, 48 h
Active and inactive are the calls of the source. Cut-off read from the data, not from the text of the source: active = GI50 up to about 1.1 µM and inactive = higher.
Lab note: assign the record to one of active, inactive

Some solved entries appear below for comparison.
molecule	system	class-label
C(CCCCc1nnc(N2CCOCC2)o1)CCCc1nnc(N2CCOCC2)o1	SK-MEL-5	inactive
CC(=O)Nc1ccc2c3c(cc(O)c2c1)N(C(=O)CCCCCC(=O)Nc1ccc2c4c(cc(O)c2c1)N(C(=O)OC(C)(C)C)CC4CCl)CC3CCl (centres undefined)	SK-MEL-5	inactive
CC(=O)C1=C(O)C(N)C2Cc3c(c(O)c4c(O)c(C)ccc4c3C)C(=O)C2(O)C1=O (centres undefined)	SK-MEL-5	inactive
N=C(N)c1ccc(C(NC(=O)CNS(=O)(=O)c2ccc3ccccc3c2)P(=O)(Oc2ccccc2)Oc2ccccc2)cc1 (centres undefined)	SK-MEL-5	inactive

# fetch the recorded call for OCC(O)C(O)C(C=NNc1ncnc2ccc(Br)cc12)=NNc1ncnc2ccc(Br)cc12 (centres undefined) here
inactive

# fetch the recorded call for COc1cc(C(=O)C/C(CCC(=O)Nc2ccccc2[N+](=O)[O-])=N\NC(=O)CC#N)ccc1O here
inactive

# fetch the recorded call for CN(C)CC(C)(C)C(/C=C/c1ccccc1)=N\Nc1ccccc1 here
inactive

# fetch the recorded call for COc1ccc2c3c1O[C@H]1C(=O)C=CC4(n5[nH]c(=O)n(-c6ccccc6)c5=O)C(C2)N(C)CCC314 (some centres undefined) here
inactive

# fetch the recorded call for CCOC(=O)C1=C(C(=O)c2ccc(C)cc2)C(c2cccc([N+](=O)[O-])c2)C(C(=O)c2ccc(C)cc2)=C(C(=O)OCC)N1 here
inactive

----------
- Tested on: HCT-15
Under this convention, satisfied denotes GI50 strictly below 20 µM and not satisfied denotes GI50 at or above 20 µM.

compound	class-label
CC(C)C1CC(O)O[C@@H]([C@@H](C)[C@H]2CC(=O)[C@@H]3[C@@H]4[C@@H](O)[C@H](O)[C@H]5[C@@H](O)[C@H](O)CC[C@]5(C)[C@H]4CC[C@]23C)C1 (some centres not stated)	not satisfied
COc1ccc(C(C)NNC(=O)c2cc[n+]([BH2-]C#N)cc2)cc1F (configuration not stated)	not satisfied
C[N+]1(C)C(c2ccccc2)C(=O)O[B@-]1(F)c1ccccc1 (some centres not stated)	not satisfied
COc1ccc2c3c(c(C(=O)O)oc13)CCC2	not satisfied
COC(=O)c1ccccc1C1CN=NC12Cc1cccc(C)c1C2=O (configuration not stated)	not satisfied

Bench note: check whether COc1ccc(CNc2nc(NCc3ccc(OC)cc3)nc(Nc3ccccc3)n2)cc1 shows GI50 below 20 µM
satisfied

Bench note: check whether O=[N+]([O-])c1nccn1CC(O)CN1CC1 (configuration not stated) shows GI50 below 20 µM
not satisfied

Bench note: check whether COc1ccc(OC)c(/C=C(/C#N)c2ccccc2)c1 shows GI50 below 20 µM
satisfied

Bench note: check whether O=C(/C=C\c1ccc(/C=C/C(=O)Nc2cccc(C3=NCCCN3)c2)cc1)Nc1cccc(C2=NCCCN2)c1 shows GI50 below 20 µM
not satisfied

Bench note: check whether CN(C)CC[N+](C)(C)[BH2-]C(O)O shows GI50 below 20 µM
not satisfied
